Cited source: patent US20250034159A1

test-system: recombinant human EGFR L858R/C797S double mutant protein (Homo sapiens (Human), UniProt P00533, C797S/L858R)
Sequence (P00533 25-1210 C797S/L858R): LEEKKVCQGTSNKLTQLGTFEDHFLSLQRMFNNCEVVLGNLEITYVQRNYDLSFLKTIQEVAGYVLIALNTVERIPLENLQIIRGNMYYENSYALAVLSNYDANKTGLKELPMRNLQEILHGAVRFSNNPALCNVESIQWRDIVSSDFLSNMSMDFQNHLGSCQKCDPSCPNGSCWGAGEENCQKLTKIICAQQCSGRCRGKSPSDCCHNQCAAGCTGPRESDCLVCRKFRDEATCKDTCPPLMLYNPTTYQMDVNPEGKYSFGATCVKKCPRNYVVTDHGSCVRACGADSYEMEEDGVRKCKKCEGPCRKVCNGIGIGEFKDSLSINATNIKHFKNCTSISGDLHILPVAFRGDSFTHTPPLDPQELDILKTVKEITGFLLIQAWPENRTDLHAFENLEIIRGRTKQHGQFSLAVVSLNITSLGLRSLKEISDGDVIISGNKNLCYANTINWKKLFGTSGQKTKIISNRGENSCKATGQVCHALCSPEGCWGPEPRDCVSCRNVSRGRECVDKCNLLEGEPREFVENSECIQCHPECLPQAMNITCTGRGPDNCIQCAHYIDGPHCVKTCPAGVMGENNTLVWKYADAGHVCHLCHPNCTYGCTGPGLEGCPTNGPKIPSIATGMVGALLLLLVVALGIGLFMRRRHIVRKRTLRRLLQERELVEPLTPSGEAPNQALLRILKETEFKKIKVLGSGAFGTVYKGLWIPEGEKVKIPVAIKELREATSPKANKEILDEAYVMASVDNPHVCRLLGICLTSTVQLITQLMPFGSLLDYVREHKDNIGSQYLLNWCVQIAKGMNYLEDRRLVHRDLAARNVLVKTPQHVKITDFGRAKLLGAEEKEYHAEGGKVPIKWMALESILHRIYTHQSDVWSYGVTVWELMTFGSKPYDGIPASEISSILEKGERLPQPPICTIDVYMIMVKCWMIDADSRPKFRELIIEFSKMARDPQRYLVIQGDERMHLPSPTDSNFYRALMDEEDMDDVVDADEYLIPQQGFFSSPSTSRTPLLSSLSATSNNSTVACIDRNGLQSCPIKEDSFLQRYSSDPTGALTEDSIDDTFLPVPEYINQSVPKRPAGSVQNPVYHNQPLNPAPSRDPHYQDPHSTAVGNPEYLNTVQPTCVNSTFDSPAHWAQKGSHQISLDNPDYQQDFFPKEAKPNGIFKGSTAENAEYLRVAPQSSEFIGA
assay-procedure: Biological Activity Assay B: biochemical assay against EGFR L858R/C797S protein (EGFR LR/CS)
Item-by-item account of IC50
Note: unit nM is implicit; provide only the numeric part.

Worked cases, IC50 given:
{"compound": "CC(C)(O)CCc1nc(-c2ccc(F)cc2)c(-c2ncnc3sc(-c4ccccc4)cc23)o1", "IC50, nM": 14.5}
{"compound": "N#Cc1c(-c2ccc(F)cc2)c(-c2ccnc3[nH]c(-c4ccccc4)cc23)nn1CCCO", "IC50, nM": 1.47}
{"compound": "O=S1(=O)CC(Cn2cc(-c3ncnc4oc(-c5ccccc5)cc34)c(-c3ccc(F)cc3)n2)C1", "IC50, nM": 0.82}
{"compound": "Fc1ccc(-c2nn(CC3(F)COC3)cc2-c2ncnc3oc(-c4ccccc4)cc23)cc1", "IC50, nM": 1.36}
{"compound": "NS(=O)(=O)CCn1cc(-c2ncnc3oc(-c4ccccc4)cc23)c(-c2ccc(F)cc2)n1", "IC50, nM": 0.45}

Respond only with IC50 recorded for Fc1ccc(-c2nn(C3CCOCC3)cc2-c2ncnc3oc(-c4ccccc4)cc23)cc1 0.94

Name the recorded IC50 of the compound listed here: FCCCCn1cc(-c2ncnc3oc(-c4ccccc4)cc23)c(-c2ccc(F)cc2)n1 1.25

Please give measured IC50 of the following entry: OCCCc1cc(-c2ccnc3[nH]c(-c4ccccc4)cc23)n(-c2ccc(F)cc2)n1 1.08

Write down IC50 measured for item CN1CCN(c2ccc(-c3nc4c(-c5cn(CCCO)nc5-c5ccc(F)cc5)ccnc4[nH]3)cc2)CC1 0.272

Fill in IC50 for record CS(=O)(=O)n1ncc(-c2ncnc3oc(-c4ccccc4)cc23)c1-c1ccc(F)cc1 3.58

Consider the compound CC(C)(O)CCc1nc(-c2ccc(F)cc2)c(-c2ncnc3oc(-c4ccccc4)cc23)o1 and give its recorded IC50. 2.76

Quick one: give measured IC50 for Fc1ccc(-c2nn(CCCC(F)F)cc2-c2ncnc3oc(-c4ccccc4)nc23)cc1 4.06

Return reported IC50. Input compound: OCCCn1cc(-c2ncnc3sc(-c4ccccc4)cc23)c(-c2ccc(F)cc2)n1 5.49

Report IC50 for CNC(=O)CCn1cc(-c2ncnc3oc(-c4ccccc4)cc23)c(-c2ccc(F)cc2)n1 0.47

Output measured IC50 for this item: O=S1(=O)CC[C@@H](Cn2cc(-c3ncnc4oc(-c5ccccc5)cc34)c(-c3ccc(F)cc3)n2)C1 (single isomer, unassigned) 0.33

Recall and state the measured IC50 for CC(C)(O)CCn1cc(-c2ncnc3sc(-c4ccccc4)cc23)c(-c2ccc(F)cc2)n1 . 15.6

###

test-system: recombinant human EGFR exon 19 deletion/C797S double mutant protein (Homo sapiens (Human), UniProt P00533, C797S/DEL746-750)
Sequence (P00533 other isoform, or with tags, fused parts or gaps C797S/del 1-668/del 746-750 limits assumed): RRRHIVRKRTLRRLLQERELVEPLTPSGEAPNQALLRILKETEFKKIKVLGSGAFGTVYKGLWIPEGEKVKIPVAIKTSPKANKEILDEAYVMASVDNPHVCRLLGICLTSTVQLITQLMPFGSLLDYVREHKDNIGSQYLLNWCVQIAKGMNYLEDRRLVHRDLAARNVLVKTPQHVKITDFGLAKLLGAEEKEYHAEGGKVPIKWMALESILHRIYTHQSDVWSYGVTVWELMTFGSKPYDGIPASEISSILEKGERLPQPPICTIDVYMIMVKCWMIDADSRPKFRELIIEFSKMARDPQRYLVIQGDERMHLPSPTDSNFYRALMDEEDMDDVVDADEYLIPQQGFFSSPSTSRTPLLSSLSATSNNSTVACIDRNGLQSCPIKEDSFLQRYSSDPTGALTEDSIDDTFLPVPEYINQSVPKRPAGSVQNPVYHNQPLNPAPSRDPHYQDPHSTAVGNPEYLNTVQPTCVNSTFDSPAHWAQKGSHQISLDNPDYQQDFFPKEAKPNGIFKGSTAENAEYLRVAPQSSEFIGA
assay-procedure: Biological Activity Assay C: biochemical assay against EGFR exon 19 deletion/C797S protein (EGFR d19/CS)
Protocol: In Row A of a 384-well polypropylene plate, was added 48 μL of DMSO. In wells A1 and A24, were added 12 μL of DMSO. […] To a well in Row A were added 12 μL of each 10 mM test compound stock (100% DMSO). […] To the black low volume assay ready plates, were added 5 μL of 40 uM Phosphosens peptide sensor/4 mM ATP working solution to each well. […] The slope of each curve was constructed using Dotmatics in each well, and each IC50s was calculated using a 4-parameter fit model.
Listing: pIC50 of selected molecules
Note on pIC50: it is the negative log10 of concentration, concentration in mol/L.

Before answering, review these 4 worked examples.
{"molecule": "CC1(C)CC(n2cc(-c3ncnc4oc(-c5ccccc5)cc34)c(-c3ccc(F)cc3)n2)CCO1 (stereo not drawn) [Example 202]", "pIC50": 8.83}
{"molecule": "CS(=O)(=O)Cn1cc(-c2ncnc3oc(-c4ccccc4)cc23)c(-c2ccc(F)cc2)n1 [Example 79]", "pIC50": 8.70}
{"molecule": "O=S1(=O)CC(n2cc(-c3ncnc4oc(-c5ccccc5)cc34)c(-c3ccc(F)cc3)n2)C1 [Example 40]", "pIC50": 9.72}
{"molecule": "CC(C)(O)Cn1cc(-c2ncnc3oc(-c4ccccn4)cc23)c(-c2ccc(F)cc2)n1 [Example 257]", "pIC50": 9.70}

Please look at the following molecule next.
Could you please provide reported pIC50 for CC(=O)N1C=C(c2cc3c(-c4cn(C5CS(=O)(=O)C5)nc4-c4ccc(F)cc4)ncnc3o2)CCC1 [Example 155] ? Thanks! 9.39

###

test-system: recombinant human EGFR L858R/C797S double mutant protein (Homo sapiens (Human), UniProt P00533, C797S/L858R)
assay-procedure: Biological Activity Assay B: biochemical assay against EGFR L858R/C797S protein (EGFR LR/CS)
pIC50: −log10 of the molar value.
Decide using pIC50: a value greater than or equal to 9 is true (1), a smaller one is false (0).

Some entries whose results are on file:
{"molecule": "Fc1ccc(-c2nn([C@H]3CCOC3)cc2-c2ncnc3oc(-c4ccccc4)cc23)cc1 (single isomer, unassigned) [Example 91]", "label-value": "true (1)"}
{"molecule": "CC(C)(O)Cn1cc(-c2ncnc3oc(-c4ccccc4)cc23)c(-c2ccc(F)cc2)n1 [Example 46]", "label-value": "true (1)"}
{"molecule": "CC(C)(O)CCc1nc(-c2ccc(F)cc2)c(-c2ncnc3oc(-c4ccccc4)nc23)o1 [Example 57]", "label-value": "false (0)"}
{"molecule": "CN1CCN(c2ccc(-c3cc4c(-c5nn(CCCO)nc5-c5ccc(F)cc5)ccnc4[nH]3)cc2)CC1 [Example 18]", "label-value": "true (1)"}
{"molecule": "CC(O)Cn1cc(-c2ncnc3oc(-c4ccccc4)cc23)c(-c2ccc(F)cc2)n1 (stereo not drawn) [Example 58]", "label-value": "true (1)"}
{"molecule": "CC(C)(O)Cn1cc(-c2ncnc3oc(-c4ccccc4)cc23)c(-c2ccccc2F)n1 [Example 109]", "label-value": "true (1)"}

Decide: is the reported value of pIC50 for CC(O)CCn1cc(-c2ncnc3oc(-c4ccccc4)cc23)c(-c2ccc(F)cc2)n1 (stereo not drawn) [Example 62] equal to or greater than 9? true (1)

Exam item: decide whether the reported pIC50 for O[C@H]1C[C@@H](Cn2cc(-c3ncnc4oc(-c5ccccc5)cc34)c(-c3ccc(F)cc3)n2)C1 [Example 42] is at least 9. true (1)

Textbook exercise: given the entry O=S1(=O)CCC(n2cc(-c3ncnc4oc(-c5ccccc5)cc34)c(-c3ccc(F)cc3)n2)C1 (stereo not drawn) [Example 41] , state whether its pIC50 is greater than or equal to 9. true (1)

Is it the case that CN(C)S(=O)(=O)n1cc(-c2ncnc3oc(-c4ccccc4)cc23)c(-c2ccc(F)cc2)n1 [Example 51] has pIC50 reaching or exceeding 9? false (0)

###

As shown below, each of these compounds has a reported pIC50 value.
test-system: recombinant human EGFR L858R/C797S double mutant protein (Homo sapiens (Human), UniProt P00533, C797S/L858R)
assay-procedure: Biological Activity Assay B: biochemical assay against EGFR L858R/C797S protein (EGFR LR/CS)
pIC50 (log units): -log10 of the concentration in mol/L.

See these solved cases before continuing.
{"molecular-string": "OC1(CCn2cc(-c3ncnc4oc(-c5ccccc5)cc34)c(-c3ccc(F)cc3)n2)CC1", "assay-value": 8.95}
{"molecular-string": "CN1CCN(c2ccc(-c3nc4c(-c5cn(CCCO)nc5-c5ccc(F)cc5)ncnc4o3)cc2)CC1", "assay-value": 9.82}
{"molecular-string": "CN(C)S(=O)(=O)CCCn1cc(-c2ncnc3oc(-c4ccccc4)cc23)c(-c2ccc(F)cc2)n1", "assay-value": 9.22}

Supply recorded pIC50 for Fc1ccc(-c2nn(C3COC3)nc2-c2ncnc3oc(-c4ccccc4)cc23)cc1 here. 8.59

###

test-system: recombinant human EGFR exon 19 deletion/C797S double mutant protein (Homo sapiens (Human), UniProt P00533, C797S/DEL746-750)
assay-procedure: Biological Activity Assay C: biochemical assay against EGFR exon 19 deletion/C797S protein (EGFR d19/CS)
quantity-kind: IC50 (nM)
Provide the reading as a plain figure in nM.

{"compound": "Fc1ccc(-c2nn(CC3CCC(F)(F)CC3)cc2-c2ncnc3oc(-c4ccccc4)cc23)cc1", "quantity-kind": "IC50", "unit-annotation": "nM", "assay-value": 10.2}
{"compound": "O=S1(=O)CC(Cn2cc(-c3ncnc4oc(-c5ccccc5)cc34)c(-c3ccc(F)cc3)n2)C1", "quantity-kind": "IC50", "unit-annotation": "nM", "assay-value": 1.27}
{"compound": "C[C@H]1OCC[C@@H]1n1cc(-c2ncnc3oc(-c4ccccc4)cc23)c(-c2ccc(F)cc2)n1 (single isomer, unassigned)", "quantity-kind": "IC50", "unit-annotation": "nM", "assay-value": 0.88}
{"compound": "Cn1ccc(-c2cc3c(-c4cn(CC(C)(C)O)nc4-c4ccc(F)cc4)ncnc3o2)n1", "quantity-kind": "IC50", "unit-annotation": "nM", "assay-value": 0.207}
{"compound": "FCCCn1cc(-c2ncnc3oc(-c4ccccc4)cc23)c(-c2ccc(F)cc2)n1", "quantity-kind": "IC50", "unit-annotation": "nM", "assay-value": 0.31}

Return value of IC50 for input Fc1ccc(-c2nn(CCOC(F)F)cc2-c2ncnc3oc(-c4ccccc4)cc23)cc1 , no commentary. 0.46

Return the recorded IC50 value; entry: CN1CC[C@H](n2cc(-c3ncnc4oc(-c5ccccc5)cc34)c(-c3ccc(F)cc3)n2)C1=O (single isomer, unassigned) 0.83
